Test system: Vibrio cholerae
test method notes: growth AUC normalised to DMSO control (fraction of control); higher = less growth inhibition, active = hit call of the paper
settings: 20 µM
Structures can show the parent of a compound that is named as a salt.
growth AUC normalised to DMSO control vs 1: at or above is fulfilled, below is not fulfilled.

Some solved entries appear below for comparison.
IN: Dear colleague, could you confirm whether NCCCC[C@H](N[C@@H](CCc1ccccc1)C(=O)O)C(=O)N1CCC[C@H]1C(=O)O has growth AUC normalised to DMSO control at or above 1?
OUT: fulfilled

IN: Now try COc1ccc2c(c1)c(CC(=O)O)c(C)n2C(=O)c1ccc(Cl)cc1 .
OUT: not fulfilled

IN: # iterate: Nc1ccc(/N=N/c2ccccc2)c(N)n1 [Phenazopyridine hydrochloride]
OUT: not fulfilled

IN: Another compound: COc1ccc([C@@H]2CC(=O)c3c(O)cc(O[C@@H]4O[C@H](CO[C@@H]5O[C@@H](C)[C@H](O)[C@@H](O)[C@H]5O)[C@@H](O)[C@H](O)[C@H]4O)cc3O2)cc1O
OUT: fulfilled

IN: Record: CCCOc1cc(N)ccc1C(=O)OCCN(CC)CC [Propoxycaine hydrochloride]
OUT: fulfilled

Next:
IN: Hi team, for CN(Cc1cnc2nc(N)nc(N)c2n1)c1ccc(C(=O)N[C@@H](CCC(=O)O)C(=O)O)cc1 , is the recorded growth AUC normalised to DMSO control at or above 1?
OUT: not fulfilled

IN: For Oc1c(Cl)cc(Cl)c2cccnc12 then?
OUT: not fulfilled

IN: Then this compound: NC(=O)c1cccnc1 [Nicotinamide]
OUT: fulfilled

----------
Test system: P. vulgatus RND KO
test method notes: growth AUC normalised to DMSO control (median) (fraction of control); higher = less growth inhibition, active = hit call of the paper
settings: 20 µM
Counter-ions that a name gives are not always drawn.
endpoint label: growth AUC normalised to DMSO control
Write no unit; give the number alone.

IN: Give its growth AUC normalised to DMSO control value. Item: CC(C)=C/C(C)=N/Nc1nncc2ccccc12
OUT: 1.02

IN: Same read-out for Clc1ccc(C(Cn2ccnc2)OCc2ccsc2Cl)c(Cl)c1 (centres undefined) ?
OUT: 0.932

IN: Field entry: NC(=O)c1cnccn1 [Pyrazinamide]
OUT: 0.992

New cases:
IN: Need growth AUC normalised to DMSO control of Nc1ccc(S(N)(=O)=O)cc1 [Sulfanilamide] , thanks.
OUT: 1.03

IN: What about CC(=O)Oc1ccccc1C(=O)Nc1ncc([N+](=O)[O-])s1 [Nitazoxanide] ?
OUT: 0.0128

IN: For CCN(CC)CCNC(=O)c1ccc(N)cc1 [Procainamide hydrochloride] then?
OUT: 1.02

----------
System: Yersinia pseudotuberculosis
test method notes: growth AUC normalised to DMSO control (fraction of control); higher = less growth inhibition, active = hit call of the paper
settings: 20 µM
Structures can show the parent of a compound that is named as a salt.
I would appreciate it if you answered using one of these outcomes: yes (active), no (inactive)

Reference set (3 entries):
IN: Tell me the assay call for O=C(OCC(O)CO)c1ccccc1Nc1ccnc2cc(Cl)ccc12 (configuration not stated) [Glafenine hydrochloride] please.
OUT: no

IN: Same question for C[C@]1(Cn2ccnn2)[C@H](C(=O)O)N2C(=O)C[C@H]2S1(=O)=O [Tazobactam] please.
OUT: no

IN: Would you kindly repeat that for C[C@@H]1C[C@H]2[C@@H]3C[C@H](F)C4=CC(=O)C=C[C@]4(C)[C@@]3(Cl)[C@@H](O)C[C@]2(C)[C@H]1C(=O)COC(=O)C(C)(C)C [Clocortolone pivalate] ?
OUT: no

---
IN: Can you look up the reported call for CC(C)(S)C(N)C(=O)O (racemic) [D,L-Penicillamine] for me?
OUT: no

IN: Subsequent entry: Cc1ccc(N(CC2=NCCN2)c2cccc(O)c2)cc1 [Phentolamine hydrochloride]
OUT: no

IN: Record: O=C1c2c(O)cccc2Cc2cccc(O)c21 [Anthralin]
OUT: no

IN: Same thing, different compound: CC(COc1ccccc1)NC(C)C(O)c1ccc(O)cc1 (configuration not stated) [Isoxsuprine hydrochloride]
OUT: no

IN: Try the compound Nc1nc(O)c2ncn(CCC(CO)CO)c2n1 [Penciclovir]
OUT: no

----------
Examples of compounds with documented growth AUC normalised to DMSO control follow.
Tested on: P. vulgatus WT
test method notes: growth AUC normalised to DMSO control (median) (fraction of control); higher = less growth inhibition, active = hit call of the paper
settings: 20 µM
Structures can show the parent of a compound that is named as a salt.
Output: the number by itself.

IN: growth AUC normalised to DMSO control for CCOc1ccccc1OC(c1ccccc1)C1CNCCO1 (stereo not drawn) [Reboxetine mesylate] ?
OUT: 1.01

More entries:
IN: Quick one: growth AUC normalised to DMSO control of c1ccc(CNc2ncnc3nc[nH]c23)cc1 ?
OUT: 0.985

IN: Now consider CC1c2cccc(O)c2C(O)=C2C(=O)C3(O)C(O)=C(C(N)=O)C(=O)C(N(C)C)C3C(O)C21 (stereo not drawn) [Doxycycline hydrochloride] .
OUT: 0.00631

----------
System: P. vulgatus RND KO
test method notes: growth AUC normalised to DMSO control (median) (fraction of control); higher = less growth inhibition, active = hit call of the paper
settings: 20 µM
Counter-ions that a name gives are not always drawn.
endpoint label: growth AUC normalised to DMSO control

Solved cases (8 shown):
IN: Give its growth AUC normalised to DMSO control value. Item: CC(=O)N[C@@H](CC(C)C)C(=O)O
OUT: 0.99 (inactive)

IN: Same lookup for N[C@@H](Cc1ccc(O)c(O)c1)C(=O)O , please.
OUT: 1.01 (inactive)

IN: Now consider NC(N)=Nc1nc(CSCC/C(N)=N/S(N)(=O)=O)cs1 and answer again.
OUT: 1.01 (inactive)

IN: Repeat for the following molecule: OC(c1cc(C(F)(F)F)nc2c(C(F)(F)F)cccc12)C1CCCCN1 (stereo not drawn) [Mefloquine hydrochloride]
OUT: 0.719 (inactive)

IN: Next up: C[C@]12C[C@H](O)[C@H]3[C@@H](CCC4=CC(=O)CC[C@@]43C)[C@@H]1CC[C@@H]2C(=O)CO
OUT: 1 (inactive)

IN: Please do the same for CCN[C@@H]1C[C@H](N)[C@@H](O[C@H]2OC(CN)=CC[C@H]2N)[C@H](O)[C@H]1O[C@H]1OC[C@](C)(O)[C@H](NC)[C@H]1O [Netilmicin sulfate] as well.
OUT: 1.02 (inactive)

IN: Then this molecule: O=C1OC(CN2CCOCC2)CN1/N=C/c1ccc([N+](=O)[O-])o1 (stereo not drawn) [Furaltadone hydrochloride]
OUT: 0.0255 (active)

IN: What would you report for CCN(CC)CCNC(=O)c1cc(Br)c(N)cc1OC [Bromopride] ?
OUT: 1 (inactive)

Others:
IN: Find the recorded growth AUC normalised to DMSO control belonging to COc1ccccc1N1CCN(CCCNc2cc(=O)n(C)c(=O)n2C)CC1 [Urapidil hydrochloride] and report it.
OUT: 0.976 (inactive)

IN: Also COC(=O)C1=C(C)NC(C)=C(C(=O)OC)C1c1ccccc1[N+](=O)[O-] ?
OUT: 0.987 (inactive)

IN: What do you have for O=S(=O)(O)c1cc(O)ccc1O [Ethamsylate diethylammonium salt] ?
OUT: 0.99 (inactive)

IN: One more molecule: COc1cc([S+](C)[O-])ccc1-c1nc2cccnc2[nH]1 (stereo not drawn)
OUT: 1.07 (inactive)

IN: Now give it for CC(Oc1c(Cl)cccc1Cl)C1=NCCN1 (stereo not drawn) too.
OUT: 1.02 (inactive)

IN: Now the molecule N=C(N)NCCN1CCCCCCC1 [Guanethidine sulfate]
OUT: 1.02 (inactive)

----------
System: S. enterica typhimurium tolC KO
test method notes: growth AUC normalised to DMSO control (median) (fraction of control); higher = less growth inhibition, active = hit call of the paper
settings: 20 µM
Counter-ions that a name gives are not always drawn.
endpoint label: growth AUC normalised to DMSO control
Write the number on its own, no unit after it.

IN: Param item = COc1ncnc(NS(=O)(=O)c2ccc(N)cc2)c1OC [Sulfadoxine] ; retrieve measured growth AUC normalised to DMSO control.
OUT: 0.993

IN: Next compound up: C[C@H]1[C@H](OC(=O)CCC(=O)O)O[C@@H]2O[C@@]3(C)CC[C@H]4[C@H](C)CC[C@@H]1[C@@]24OO3 [Artesunate]
OUT: 1.01

IN: Another compound to check: OC(CCN1CCCCC1)(c1ccccc1)C1CC2C=CC1C2 (centres undefined) [Biperiden hydrochloride]
OUT: 0.946

IN: // next record CN(C)CCc1c[nH]c2ccc(Cn3cncn3)cc12 [Rizatriptan benzoate]
OUT: 0.994

IN: Similarly, COc1ccccc1O [Guaiacol] ?
OUT: 1

IN: Cool, now COC(=O)Nc1nc2cc(C(=O)c3ccccc3)ccc2[nH]1 [Mebendazole]
OUT: 0.989

IN: Further, for Clc1cccc(Cl)c1NC1=NCCN1 [Clonidine hydrochloride] ?
OUT: 1.01

IN: # iterate: Cn1c([N+](=O)[O-])cnc1COC(N)=O [Ronidazole]
OUT: 0.923

IN: Moving on to the next compound: C[C@H]1COc2c(N3CCN(C)CC3)c(F)cc3c(=O)c(C(=O)O)cn1c23 [Levofloxacin]
OUT: 0.00559
